Biological target: human B-Raf (Homo sapiens, UniProt P15056)
Construct: Flag; GST; made in house; host or cells: Sf9 insect cells (B-Raf); E. coli (MEK1-GST)
Sequence (P15056 whole entry): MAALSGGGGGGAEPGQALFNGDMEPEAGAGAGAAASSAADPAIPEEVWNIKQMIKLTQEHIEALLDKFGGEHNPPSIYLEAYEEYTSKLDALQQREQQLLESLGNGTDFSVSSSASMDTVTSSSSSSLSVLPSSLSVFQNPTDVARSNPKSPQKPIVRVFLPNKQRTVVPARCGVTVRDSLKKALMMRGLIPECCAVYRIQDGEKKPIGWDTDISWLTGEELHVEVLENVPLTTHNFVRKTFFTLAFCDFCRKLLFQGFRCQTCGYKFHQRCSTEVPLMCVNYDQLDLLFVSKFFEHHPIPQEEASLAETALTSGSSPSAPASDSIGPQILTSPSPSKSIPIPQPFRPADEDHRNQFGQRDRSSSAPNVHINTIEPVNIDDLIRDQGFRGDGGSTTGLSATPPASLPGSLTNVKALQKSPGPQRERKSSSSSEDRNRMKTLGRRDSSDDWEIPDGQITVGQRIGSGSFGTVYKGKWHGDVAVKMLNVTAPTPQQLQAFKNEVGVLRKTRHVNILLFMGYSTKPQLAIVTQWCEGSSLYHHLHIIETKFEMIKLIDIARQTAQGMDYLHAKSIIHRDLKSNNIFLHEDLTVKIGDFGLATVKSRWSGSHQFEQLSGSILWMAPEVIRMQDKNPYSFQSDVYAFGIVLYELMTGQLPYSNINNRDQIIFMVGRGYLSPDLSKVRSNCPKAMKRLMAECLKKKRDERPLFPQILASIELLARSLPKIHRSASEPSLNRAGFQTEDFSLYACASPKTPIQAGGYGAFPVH
Assay: B-Raf Kinase to MEK1 ELISA
Type: biochemical
Conditions: read-out: % Inhib./10 uM
Please map values of inhibition at 10 µM to classes as shown: category 1: < 30%; category 2: ≥ 30% and < 70%; category 3: ≥ 70%

Would you please look over these solved cases?
Each compound maps to one class by inhibition at 10 µM. Which class for CN1CCC(c2cnn3c(-c4cccc(NC(=O)c5cccc(C(F)(F)F)c5)c4)ccnc23)CC1 [Example 309] ?
category 2

Request: O=C(Nc1cccc(-c2ccnc3c(C(=O)NCCN4CCCC4)cnn23)c1)c1cccc(C(F)(F)F)c1 [Example 48]
category 2

Request: CCOC(=O)c1cnn2c(-c3cccc(NC(=O)c4ccc(Br)s4)c3)ccnc12 [Example 223]
category 2

---
Each compound maps to one class by inhibition at 10 µM. Which class for O=C(Nc1cccc(-c2ccnc3c(C(=O)O)cnn23)c1)c1cccc(C(F)(F)F)c1 [Example 32] ?
category 1

Request: CN(C)CC(=O)Nc1cccc(-c2cnn3c(-c4cccc(NC(=O)c5cccc(C(F)(F)F)c5)c4)ccnc23)c1 [Example 253]
category 3

Request: Cc1ccc(C(=O)Nc2cccc(-c3ccnc4cc(N5CCOCC5)nn34)c2)cc1C(F)(F)F [Example 194]
category 3

Request: Cc1ccc(C(=O)Nc2cccc(-c3ccnc4c(C(N)=O)cnn34)c2)cc1C(F)(F)F [Example 67]
category 1

Request: CCOC(=O)c1cnn2c(-c3cccc(NC(=O)CC(C)(C)C)c3)ccnc12 [Example 225]
category 1

---

Biological target: human B-Raf (Homo sapiens, UniProt P15056)
Construct: Flag; GST; made in house; host or cells: Sf9 insect cells (B-Raf); E. coli (MEK1-GST)
Assay: B-Raf Kinase to MEK1 ELISA
Format: biochemical
Conditions: median; cpd concentrations from 10 μM to 30 nM in half log dilutions; read-out: Median IC50
Hi there, I'd appreciate the recorded IC50 for every entry that follows.

For each of the items listed, what is its IC50?
1. O=C(Nc1cccc(-c2ccnc3cc(-c4ccccn4)nn23)c1)c1cccc(C(F)(F)F)c1 [Example 111]
2. CCOC(=O)c1cnn2c(-c3cccc(NC(=O)Nc4ccc(C#N)cc4)c3)ccnc12 [Example 38]
3. Cc1ccc(C(=O)Nc2cccc(-c3ccnc4c(-c5nn[nH]n5)cnn34)c2)cc1C(F)(F)F [Example 66]

> 3 µM
> 10 µM
> 10 µM

---

Hi there, I'd appreciate the recorded inhibition at 10 µM for every entry that follows.
Target: human B-Raf (Homo sapiens, UniProt P15056)
Construct: Flag; GST; made in house; host or cells: Sf9 insect cells (B-Raf); E. coli (MEK1-GST)
Experiment: B-Raf Kinase to MEK1 ELISA
Format: biochemical
Details: read-out: % Inhib./10 uM
State the result as a value with its unit after it.

Study these solved cases before continuing.
Dear colleague, I am looking for the recorded inhibition at 10 µM of the following compound: O=C(Nc1cccc(-c2ccnc3c(C#CCCCN4CCOCC4)cnn23)c1)c1cccc(C(F)(F)F)c1 [Example 282]
79%

Request: O=C(Nc1cccc(-c2ccnc3c(-c4cccnc4)cnn23)c1)c1ccc(Cl)c(C(F)(F)F)c1 [Example 172]
81%

Shifting focus to the compound that follows.
Dear colleague, I am looking for the recorded inhibition at 10 µM of the following compound: COCCC(=O)Nc1ccc(-c2cnn3c(-c4cccc(NC(=O)c5cccc(C(F)(F)F)c5)c4)ccnc23)cc1 [Example 231]
80%

---

Biological target: human B-Raf (Homo sapiens, UniProt P15056)
Construct: Flag; GST; made in house; host or cells: Sf9 insect cells (B-Raf); E. coli (MEK1-GST)
Assay: B-Raf Kinase to MEK1 ELISA
Assay type: biochemical
Conditions: read-out: % Inhib./10 uM
ASSAY METRIC: inhibition at 10 µM (%)
Numbers only, in %.

Study these solved cases before continuing.
Dear colleague, I am looking for the recorded inhibition at 10 µM of the following compound: COCCCNC(=O)c1cnn2c(-c3cccc(NC(=O)c4cccc(C(F)(F)F)c4)c3)ccnc12 [Example 56]
60

Request: CN1CC=C(c2cnn3c(-c4cccc(NC(=O)c5cccc(C(F)(F)F)c5)c4)ccnc23)CC1 [Example 306]
68

Request: Cc1ccc(C(=O)Nc2cccc(-c3ccnc4cc(-c5ccc(Cl)cc5)nn34)c2)cc1C(F)(F)F [Example 118]
22

Request: O=C(Nc1cccc(-c2ccnc3c(Br)cnn23)c1)c1ccc(F)c(C(F)(F)F)c1 [Example 163]
74

Request: N#Cc1ccc(-c2cnn3c(-c4cccc(NC(=O)c5cccc(C(F)(F)F)c5)c4)ccnc23)cc1 [Example 295]
41

Request: O=C(Nc1cccc(-c2ccnc3cc(-c4ccncc4)nn23)c1)c1cc(Cl)ccc1Br [Example 241]
34

Request: O=C(Nc1cccc(-c2ccnc3cc(-c4ccc(F)cc4)nn23)c1)c1cccc(C(F)(F)F)c1 [Example 139]
35

Request: CCOC(=O)c1cnn2c(-c3cccc(NC(=O)c4ccc(C(F)(F)F)c(F)c4)c3)ccnc12 [Example 9]
20

For each of the items listed, what is its inhibition at 10 µM?
1. CCOC(=O)c1cnn2c(-c3cccc(NC(=O)c4cnc(C)cn4)c3)ccnc12 [Example 216]
2. CCOC(=O)c1cnn2c(-c3cccc(NC(=O)c4cc(C(C)(C)C)cc(C(C)(C)C)c4)c3)ccnc12 [Example 227]

1: 3; 2: 54

---

Molecular target: human B-Raf (Homo sapiens)
Construct: Flag; GST; made in house; host or cells: Sf9 insect cells (B-Raf); E. coli (MEK1-GST)
Experiment: B-Raf Kinase to MEK1 ELISA
Type: biochemical
ASSAY METRIC: pIC50
Numbers only, as −log10 of the molar value.

Study these solved cases before continuing.
Dear colleague, I am looking for the recorded pIC50 of the following compound: O=C(Nc1cccc(-c2ccnc3cc(-c4ccncc4)nn23)c1)c1ccc(Cl)c(C(F)(F)F)c1 [Example 129]
7.30

Request: O=C(Nc1cccc(-c2ccnc3c(-c4cn[nH]c4)cnn23)c1)c1cccc(C(F)(F)F)c1 [Example 275]
7.08

Request: O=C(Nc1cccc(-c2ccnc3cc(-c4ccncc4)nn23)c1)c1ccc(Cl)c(Cl)c1 [Example 149]
5.90

Request: O=C(Nc1cccc(-c2ccnc3c(-c4ccc(CO)cc4)cnn23)c1)c1cccc(C(F)(F)F)c1 [Example 285]
7.08

Request: CN(C)CCNc1cc(-c2cc3nccc(-c4cccc(NC(=O)c5cccc(C(F)(F)F)c5)c4)n3n2)ccn1 [Example 266]
7.27

For each of the items listed, what is its pIC50?
1. Cc1ccc(C(=O)Nc2cccc(-c3ccnc4c(-c5cccc(C(=O)N(C)C)c5)cnn34)c2)cc1C(F)(F)F [Example 183]
2. COC(=O)c1cccc(-c2cnn3c(-c4cccc(NC(=O)c5cccc(C(F)(F)F)c5)c4)ccnc23)c1 [Example 296]

1. 6.57
2. 5.75

For each of the items listed, what is its pIC50?
1. CC(=O)c1cccc(-c2cnn3c(-c4cccc(NC(=O)c5cccc(C(F)(F)F)c5)c4)ccnc23)c1 [Example 299]
2. CN1CCN(CCCC#Cc2cnn3c(-c4cccc(NC(=O)c5cccc(C(F)(F)F)c5)c4)ccnc23)CC1 [Example 279]
3. O=C(Nc1cccc(-c2ccnc3c(-c4cccnc4)cnn23)c1)c1cccc(C(F)(F)F)c1 [Example 155]

[6.21, 6.07, 7.02]

---

Target: human B-Raf (Homo sapiens, UniProt P15056)
Construct: Flag; GST; made in house; host or cells: Sf9 insect cells (B-Raf); E. coli (MEK1-GST)
Test: B-Raf Kinase to MEK1 ELISA
Assay type: biochemical
Conditions: median; cpd concentrations from 10 μM to 30 nM in half log dilutions; read-out: Median IC50
Protocol: TITLE: B-Raf Kinase to MEK1 ELISA PURPOSE: To discover B-Raf Kinase inhibitors that can inhibit growth of tumor cells which contain oncogenic forms of Receptor Tyrosine Kinases or K-Ras, or B-Raf kinase. […] B-Raf-1 is used to phosphorylate GST-MEK1. MEK1 phosphorylation is measured by a phospho-specific antibody (from Cell Signaling Technology, cat. #9121) that detects phosphorylation of two serine residues at positions 217 and 221 on MEK1. […] 11. Read plates in Wallac Victor model Plate Reader. […]
pIC50: −log10 of the molar value.
ASSAY METRIC: pIC50

Dear colleague, I am looking for the recorded pIC50 of the following compound: CCOC(=O)c1cnn2c(-c3cccc(NC(=O)c4cnccn4)c3)ccnc12 [Example 214]
< 5.00

Request: CCOC(=O)c1cnn2c(-c3cccc(NC(=O)c4cccc(Cl)c4)c3)ccnc12 [Example 70]
< 5.00

Request: CCOC(=O)c1cnn2c(-c3cccc(NC(=O)c4cccc(Br)c4)c3)ccnc12 [Example 4]
< 5.00

For each of the items listed, what is its pIC50?
1. CCOC(=O)c1cnn2c(-c3cccc(NC(=O)Cc4cccc(Br)c4)c3)ccnc12 [Example 92]
2. Cc1cc2nccc(-c3cccc(NC(=O)c4cccc(C(F)(F)F)c4)c3)n2n1 [Example 112]
3. CCOC(=O)c1cnn2c(-c3cccc(NC(=O)Nc4cc(C)on4)c3)ccnc12 [Example 248]
4. CCOC(=O)c1cnn2c(-c3cccc(NC(=O)c4ccc(-c5cc(C(F)(F)F)nn5C)s4)c3)ccnc12 [Example 224]
5. CCOC(=O)c1cnn2c(-c3cccc(NC(=O)Nc4ccc(N5CCOCC5)c(Cl)c4)c3)ccnc12 [Example 84]
6. CCOC(=O)c1cnn2c(-c3cccc(NC(=O)Cc4ccc(OC)c(C)c4)c3)ccnc12 [Example 101]
7. CCOC(=O)c1c(C)nn2c(-c3cccc(NC(=O)c4ccc(C)c(C(F)(F)F)c4)c3)ccnc12 [Example 64]
8. O=C(Nc1cccc(-c2ccnc3cc(-c4ccncc4)nn23)c1)Nc1ccc(Cl)c(C(F)(F)F)c1 [Example 133]

< 5.00
< 5.00
< 5.00
< 5.00
< 5.00
< 5.00
< 5.00
7.52
